Exercise: state measured CPP32 k3/Ki for each of the molecules provided.
Target: CPP32 (Homo sapiens, UniProt P42574)
Sequence (P42574 29-175 limits assumed, species assumed): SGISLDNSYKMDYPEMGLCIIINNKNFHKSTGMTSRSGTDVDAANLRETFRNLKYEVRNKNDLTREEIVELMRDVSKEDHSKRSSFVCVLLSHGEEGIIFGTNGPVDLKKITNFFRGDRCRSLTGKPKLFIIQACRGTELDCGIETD
Sequence (P42574 176-277 limits assumed, species assumed): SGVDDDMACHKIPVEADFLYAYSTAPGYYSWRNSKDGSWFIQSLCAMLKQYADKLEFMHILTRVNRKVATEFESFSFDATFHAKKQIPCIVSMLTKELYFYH
Assay: Dissociation constant Ki and irreversible rate constant k3 for irreversible inhibitors, CPP32
Assay type: biochemical
Details: continuous assay 60 min, reaction initiated by adding enzyme

Hi! Can you tell me CPP32 k3/Ki for each of these molecules?
1. CC(C)[C@H](NC(=O)COc1cccc2ccccc12)C(=O)N[C@@H](CC(=O)O)C(=O)COc1cc(F)ccc1F [Example 70]
2. CC(C)C[C@H](NC(=O)COc1c(C(=O)O)ccc2ccccc12)C(=O)N[C@@H](CC(=O)O)C(=O)COc1c(F)c(F)cc(F)c1F [Example 167]

1: 49,000 M^−1s^−1; 2: 56,200 M^−1s^−1

Missing value: CPP32 k3/Ki, CPP32 (Homo sapiens, UniProt P42574), entry CC(C)[C@H](NC(=O)COc1ccccc1-c1ccccc1)C(=O)N[C@@H](CC(=O)O)C(=O)COc1c(F)c(F)cc(F)c1F [Example 152] . Fill in?
241,000 M^−1s^−1
